Biological target: T1, PUF4 RNA-binding domain (Saccharomyces cerevisiae, UniProt P25339 537-888)
T1 sequence: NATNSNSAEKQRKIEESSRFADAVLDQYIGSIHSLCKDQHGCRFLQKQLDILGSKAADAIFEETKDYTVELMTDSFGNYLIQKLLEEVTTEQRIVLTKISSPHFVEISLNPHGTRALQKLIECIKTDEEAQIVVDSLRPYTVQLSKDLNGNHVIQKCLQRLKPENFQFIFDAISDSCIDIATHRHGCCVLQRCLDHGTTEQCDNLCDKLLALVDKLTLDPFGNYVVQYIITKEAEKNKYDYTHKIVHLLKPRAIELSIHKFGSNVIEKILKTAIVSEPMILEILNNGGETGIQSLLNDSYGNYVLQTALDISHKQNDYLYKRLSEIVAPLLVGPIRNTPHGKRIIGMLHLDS
Test: Mg; RNA-MaP; 20 mM Na-HEPES pH 7.4, 30 mM KOAc, 0.75 mM MgCl2, 0.1% Tween-20, 5% glycerol, 0.1 mg/mL BSA, 2 mM DTT; 25 C; 0.0125-409.6 nM protein
Settings: tags: N-His6-TEV cleaved; C-SNAP kept, Cy3B-labelled; label: tethered on chip by stalled RNA polymerase
Parameter: Kd. Scope: all listed entries.
Give your result in nM as a bare value.

Consider the worked cases shown below.
ACAAACGAUAUAUAUUAAGACAAAC (ssRNA) [Id_ii_S3_P4E.3_K4.2_C4.2_[C-2G]_[T-1A]_H4.2_A4.1_F4.1_T4.2_[G10A]_[T11G]] : 76.8
Id_iii_S2_P4E.5_K4.1_C4.3_H4.1_A4.1_F4.1_T4.2_[G10T] (ssRNA) RNA: UUUGAUUAAUAUGAUAUCGUUCUUUCUUCUUGUAUAUUAUUUUCUUUCUCGAUAUCAUAUUAAUCUUU : 0.203
Ie_S2_P3E.2_K3.1_C3.2_H3.1_[+4CCCT]_A3.1_F3.1_T3.2 (ssRNA) RNA: UUUGAUUAAUAUGAUAUCGUUCUUUCUCUUGUACCCUUAUAUAUUCUUUCUCGAUAUCAUAUUAAUCUUU : 2.61

Asked: Find the measured Kd of UCUCUUUCUUGUAAUAUUAUGUCUCUU (ssRNA) [Id_iii_S1_P5E.8_K5.4_C5.3_H5.1_A5.2_F5.1_T5.2_[A12G]] and report it.
Given back: 10
